- assayedTarget: GSK3α (Homo sapiens, UniProt P49840)
- Sequence (P49840 whole entry): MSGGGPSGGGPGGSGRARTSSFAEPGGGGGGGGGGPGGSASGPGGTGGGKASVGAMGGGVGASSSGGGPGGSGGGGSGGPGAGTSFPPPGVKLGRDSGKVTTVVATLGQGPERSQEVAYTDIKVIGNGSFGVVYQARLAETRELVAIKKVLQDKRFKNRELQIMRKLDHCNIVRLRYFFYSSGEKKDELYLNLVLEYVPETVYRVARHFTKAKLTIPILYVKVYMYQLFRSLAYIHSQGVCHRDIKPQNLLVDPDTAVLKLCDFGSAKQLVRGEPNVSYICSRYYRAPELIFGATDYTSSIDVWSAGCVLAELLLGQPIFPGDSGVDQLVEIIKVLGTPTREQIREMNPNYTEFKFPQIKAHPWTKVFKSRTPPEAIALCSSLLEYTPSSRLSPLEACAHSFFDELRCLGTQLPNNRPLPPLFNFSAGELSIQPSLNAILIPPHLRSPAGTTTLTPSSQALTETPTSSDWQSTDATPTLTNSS
- measurementProtocol: GSK3α in vitro enzymatic assay (Kinase-Glo Max luminescence)
- conditionContext: recombinant human GSK3, 10 μM ATP; approximate values; read-out: Potency GSK3alpha
pIC50: −log10 of the molar value.
Given measured pIC50, output yes if it is greater than or equal to 6 and no if not.

These solved cases illustrate the format of a correct answer.
>  <compound>
CC(C)n1cc(C(=O)O)c(=O)c2c(N)c(F)c(N[C@]3(C)C[C@@H](N[C@@H]4C[C@H]4c4ccccc4)C3)cc21 (relative stereo) [Compound I-93]

>  <groupLabel>
no

$$$$
>  <compound>
CCn1cc(C(=O)O)c(=O)c2c(N)c(F)c(N[C@@H]3C[C@H]3c3ccccc3)cc21 [Compound I-21]

>  <groupLabel>
yes

$$$$
>  <compound>
CCn1cc(C(=O)O)c(=O)c2c(N)c(F)c(N[C@@H]3CC[C@H]3c3ccccc3)cc21 (relative stereo) [Compound I-13]

>  <groupLabel>
yes

$$$$

Now take the following compound into account.
Tell me whether pIC50 is at least 6 here: CCn1cc(C(N)=O)c(=O)c2c(N)c(F)c(NCCN[C@H]3C[C@@H]3c3ccccc3)cc21 (relative stereo) [Compound I-83] yes

* * *

- measurementProtocol: Caco-2 cell permeability assay
- Assay type: in vitro ADME
- conditionContext: human, pH 7.4; Caco-2, apical to basolateral, 10 μM, 2 hours; approximate values
Given measured Papp A→B at 2 h, 10 μM, output rule met if it is greater than or equal to 6 ×10⁻⁶ cm/s and rule not met if not.

>  <molecule>
CCn1cc(C(=O)O)c(=O)c2c(N)c(F)c(Nc3ccc([C@@H]4C[C@H]4N)cc3)cc21 (relative stereo)

>  <groupLabel>
rule not met

$$$$
>  <molecule>
CCn1cc(C(=O)O)c(=O)c2c(N)c(F)c(N[C@@H]3CC[C@H]3c3ccccc3)cc21 (relative stereo)

>  <groupLabel>
rule not met

$$$$

Tell me whether Papp A→B at 2 h, 10 μM is at least 6 ×10⁻⁶ cm/s here: CCn1cc(C(=O)O)c(=O)c2c(N)c(F)c(NC3CC3)cc21 rule met

Moving on to the next molecule: CCn1cc(C(=O)O)c(=O)c2c(N)c(F)c(N[C@H]3C[C@H](c4ccccc4)C3)cc21 rule not met

Moving on to the next molecule: CCn1cc(C(=O)O)c(=O)c2c(N)c(F)c(N(C)CCN[C@H]3C[C@@H]3c3ccccc3)cc21 (relative stereo) rule met

Moving on to the next molecule: CCn1cc(C(=O)O)c(=O)c2c(N)c(F)c(NC3CCCC3)cc21 rule not met

Moving on to the next molecule: CCn1cc(C(=O)O)c(=O)c2c(N)cc(NCCCc3ccccc3)cc21 rule met

Moving on to the next molecule: CCn1cc(C(=O)O)c(=O)c2c(N)c(F)c(NC3Cc4ccccc4C3)cc21 rule not met

Moving on to the next molecule: CCn1cc(C(=O)O)c(=O)c2c(N)c(F)c(NC3CC(N[C@@H]4C[C@H]4c4ccccc4)C3)cc21 (relative stereo) rule not met

Moving on to the next molecule: CCn1cc(C(N)=O)c(=O)c2c(N)c(F)c(NCCN[C@H]3C[C@@H]3c3ccccc3)cc21 (relative stereo) rule not met

Moving on to the next molecule: CCn1cc(C(=O)O)c(=O)c2c(N)c(F)c(N[C@@H]3CC[C@@H]3c3ccccc3)cc21 (relative stereo) rule met

Data origin, for the record: patent US20230058189A1
